Examples of molecules with documented zone of inhibition at 100 µg/mL follow.
# Tested on: Escherichia coli
# assay-text: Antibacterial activity against Escherichia coli ATCC 25922 assessed as growth inhibition at 100 ug/mL after 24 hr by cup-plate method
# Format: functional
# condition-details: ATCC 25922, 24 h, read-out: DIZ

compound-string	target-entity	measured-value
CN(C)c1ccc(/C=C/C(=O)c2cc(C(=O)/C=C/c3ccc(N(C)C)cc3)c(O)cc2O)cc1	Escherichia coli	15 mm
COc1cccc(/C=C/C(=O)c2cc(C(=O)/C=C/c3cccc(OC)c3)c(O)cc2O)c1	Escherichia coli	10 mm
CC(=O)c1cc(C(C)=O)c(OC(=O)c2ccc(Cl)cc2)cc1OC(=O)c1ccc(Cl)cc1	Escherichia coli	5 mm
COc1cc(/C=C/C(=O)c2cc(C(=O)/C=C/c3cc(OC)c(OC)c(OC)c3)c(O)cc2O)cc(OC)c1OC	Escherichia coli	10 mm
O=c1cc(-c2ccc(Cl)cc2)oc2cc3oc(-c4ccc(Cl)cc4)cc(=O)c3cc12	Escherichia coli	15 mm

Using the record for CC(=O)c1cc(C(C)=O)c(OC(=O)c2ccccc2C)cc1OC(=O)c1ccccc1C , report its zone of inhibition at 100 µg/mL.
< 5 mm

Using the record for CCN(CC)c1ccc(/C=C/C(=O)c2cc(C(=O)/C=C/c3ccc(N(CC)CC)cc3)c(OC)cc2OC)cc1 , report its zone of inhibition at 100 µg/mL.
< 5 mm

Using the record for CC(=O)c1cc(C(C)=O)c(OC(=O)c2cccc(Cl)c2)cc1OC(=O)c1cccc(Cl)c1 , report its zone of inhibition at 100 µg/mL.
< 5 mm

Using the record for COc1ccc(/C=C/C(=O)c2cc(C(=O)/C=C/c3ccc(OC)c(OC)c3)c(OC)cc2OC)cc1OC , report its zone of inhibition at 100 µg/mL.
10 mm

Using the record for O=c1cc(-c2cccc(Cl)c2)oc2cc3oc(-c4cccc(Cl)c4)cc(=O)c3cc12 , report its zone of inhibition at 100 µg/mL.
10 mm

Using the record for Cc1ccccc1/C=C/C(=O)c1cc(C(=O)/C=C/c2ccccc2C)c(O)cc1O , report its zone of inhibition at 100 µg/mL.
< 5 mm

Using the record for CC(=O)c1cc(C(C)=O)c(OC(=O)c2ccccc2[N+](=O)[O-])cc1OC(=O)c1ccccc1[N+](=O)[O-] , report its zone of inhibition at 100 µg/mL.
5 mm

src = ChEMBL document CHEMBL3046640
